system: corn; assay: Test A preemergence; type: in vivo, Zea mays; details: preemergence, 125 g ai/ha; visual injury, 0 to 100 scale, approx. 10 days
# Corn plant response rating per record follows
Write no unit; give the number alone.

Value of Corn plant response rating reported for the compound CCc1cc(C(=O)NCC(F)(F)F)nn1Oc1ccnc(C(F)(F)F)c1 [Compound 84] is 10

----------
# Crabgrass, Large plant response rating per record follows
tested on: crabgrass, large; test: Test A preemergence; format: in vivo, Digitaria sanguinalis; settings: preemergence, 125 g ai/ha; visual injury, 0 to 100 scale, approx. 10 days
Write no unit; give the number alone.

Here's what some known entries look like.
>>> observed("CCONC(=O)c1cc(CC)n(Cc2cc(C(F)(F)F)nn2CC)n1")
90
>>> observed("CCOc1cc(C(=O)NCC(F)(F)F)nn1Cc1ccnc(C(F)(F)F)c1")
100
>>> observed("CCCCNC(=O)c1cc(CC)n(Oc2ccnc(C(F)(F)F)c2)n1")
50

Value of Crabgrass, Large plant response rating reported for the molecule CNC(=O)c1cc(C)n(Cc2cccc(OC(F)(F)F)c2)n1 is 0

----------
# Pigweed plant response rating per record follows
system: pigweed; experiment: Test A preemergence; format: in vivo, Amaranthus retroflexus; conditions: preemergence, 500 g ai/ha, visual injury after approx. 10 days, 0 to 100 scale (0 no effect, 100 complete control)

>>> observed("CCc1cc(C(=O)NN(C)C)nn1Cc1ccnc(C(F)(F)F)c1")
0
>>> observed("Cc1cc(C(=O)NC(C)C)nn1Cc1ccnc(C(F)(F)F)c1")
100
>>> observed("CCCc1cc(C(=O)Nc2ccc(F)cc2)nn1Cc1cc(C(F)(F)F)nn1C")
100
>>> observed("CCc1cc(C(=O)NC(C)C)nn1Cc1ccnc(C(F)(F)F)c1")
100

Shift focus to the following entry.
Entry CCCc1cc(C(=O)NCC)nn1Cc1cc(C(F)(F)F)nn1C : Pigweed plant response rating on pigweed = 100

----------
test system: lambsquarters; test: Test C preemergence; format: in vivo, Chenopodium album; conditions: preemergence, 62 g ai/ha; scale 0 to 100 (0 no effect, 100 complete control), 13 to 15 days
# Lambsquarters plant response rating per record follows
Write no unit; give the number alone.

Value of Lambsquarters plant response rating reported for the molecule CCOc1cc(C(=O)NC2CC2)nn1Cc1ccnc(C(F)(F)F)c1 is 100

Value of Lambsquarters plant response rating reported for the molecule CCCc1cc(C(=O)NCC(F)(F)F)nn1Cc1ccnc(C(F)(F)F)c1 is 100

Value of Lambsquarters plant response rating reported for the molecule CCc1cc(C(=O)NC2CC2)nn1Cc1ccnc(OCC(F)(F)F)c1 is 100

Value of Lambsquarters plant response rating reported for the molecule CCCc1cc(C(=O)NOCC)nn1Cc1ccnc(C(F)(F)F)c1 is 98

----------
# Plant response rating, Rice per record follows
test system: rice; test: Test B flood; assay type: in vivo, Oryza sativa; settings: 250 g ai/ha, visual rating on 0 to 100 scale (0 no effect, 100 complete control), 13 to 15 days
Write no unit; give the number alone.

Value of Plant response rating, Rice reported for the compound CCc1cc(C(=O)NCC(F)(F)F)nn1Cc1ccnc(C(F)(F)F)c1 [Compound 78] is 50

Value of Plant response rating, Rice reported for the compound CCc1cc(-c2ccc(F)cc2)nn1Cc1ccnc(C(F)(F)F)c1 [Compound 111] is 20

Value of Plant response rating, Rice reported for the compound CCCCNC(=O)c1cc(CC)n(Oc2ccnc(C(F)(F)F)c2)n1 [Compound 86] is 0

Value of Plant response rating, Rice reported for the compound CCc1cc(C(=O)NC(C)C)nn1Cc1ccnc(C(F)(F)F)c1 [Compound 139] is 50

Value of Plant response rating, Rice reported for the compound CCCNC(=O)c1cc(I)n(Cc2cccc(C(F)(F)F)c2)n1 [Compound 183] is 0

Value of Plant response rating, Rice reported for the compound CCc1cc(C(=O)NC2CC2)nn1Cc1nc(C(F)(F)F)no1 [Compound 163] is 0

Value of Plant response rating, Rice reported for the compound O=C(NC1CC1)c1cc(Cl)n(Cc2cccc(C(F)(F)F)c2)n1 [Compound 174] is 0

----------
system: foxtail, giant; assay: Test C preemergence; assay type: in vivo, Setaria faberii; details: preemergence, 31 g ai/ha; visual rating, scale 0 to 100 (0 no effect, 100 complete control), 13 to 15 days
QUANTITY MEASURED: Foxtail, Giant plant response rating

>>> observed("CCNC(=O)c1cc(CCCl)n(Cc2ccnc(C(F)(F)F)c2)n1 [Compound 179]")
98
>>> observed("Cc1cc(C(=O)NC(C)C)nn1Cc1ccnc(C(F)(F)F)c1 [Compound 197]")
65
>>> observed("CCOc1cc(C(=O)NCC(F)(F)F)nn1Cc1ccnc(C(F)(F)F)c1 [Compound 104]")
100

Shift focus to the following entry.
Value of Foxtail, Giant plant response rating reported for the molecule CCc1cc(C(=O)NC2CC2)nn1Cc1ccnc(OCC(F)(F)F)c1 [Compound 200] is 75

----------
test system: velvetleaf; test: Test A preemergence; type: in vivo, Abutilon theophrasti; conditions: preemergence, 125 g ai/ha; visual injury, 0 to 100 scale, approx. 10 days
QUANTITY MEASURED: Velvetleaf plant response rating
Write no unit; give the number alone.

>>> observed("CCc1cc(C(=O)NC2CC2)nn1Cc1ccnc(OC(F)F)c1")
100
>>> observed("CCc1cc(C(=O)NCC(F)(F)F)nn1Oc1ccnc(C(F)(F)F)c1")
0

Shift focus to the following entry.
Entry CCc1cc(C(=O)NC(C)C)nn1Cc1ccnc(C(F)(F)F)c1 : Velvetleaf plant response rating on velvetleaf = 30

----------
tested on: wheat; test: Test A preemergence; assay type: in vivo, Triticum aestivum; conditions: preemergence, 500 g ai/ha, visual injury after approx. 10 days, 0 to 100 scale (0 no effect, 100 complete control)
# Wheat plant response rating per record follows
Write no unit; give the number alone.

>>> observed("CCc1cc(C(=O)NC2CC2)nn1Cc1ccnc(OCC(F)(F)F)c1 [Compound 200]")
100
>>> observed("CCCc1cc(C(=O)NCC(F)(F)F)nn1Cc1cc(C(F)(F)F)nn1C [Compound 138]")
90
>>> observed("CCc1cc(C(=O)N(C)CC)nn1Cc1cccc(OC(F)(F)F)c1 [Compound 68]")
0
>>> observed("CCc1cc(C(=O)NCC(F)(F)F)nn1Cc1ccnc(C(F)(F)F)c1 [Compound 78]")
100
>>> observed("CCc1cc(C(=O)NCC(F)(F)F)nn1Oc1ccnc(C(F)(F)F)c1 [Compound 84]")
50
>>> observed("CCc1cc(C(=O)NOC(C)(C)CC)nn1Cc1cccc(OC(F)(F)F)c1 [Compound 71]")
70
>>> observed("CCCc1cc(C(=O)NCC(F)(F)F)nn1Cc1ccnc(C(F)(F)F)c1 [Compound 105]")
100
>>> observed("CCCc1cc(C(=O)NCC)nn1Cc1ccnc(C(F)(F)F)c1 [Compound 95]")
100

Value of Wheat plant response rating reported for the molecule CCNC(=O)c1cc(CC)n(Cc2ccnc(C(F)(F)F)c2)n1 [Compound 196] is 100

Value of Wheat plant response rating reported for the molecule O=C(NC1CC1)c1cc(Cl)n(Cc2cccc(C(F)(F)F)c2)n1 [Compound 174] is 0

----------
# Morningglory plant response rating per record follows
tested on: morningglory; test: Test A preemergence; format: in vivo, Ipomoea spp.; conditions: preemergence, 500 g ai/ha, visual injury after approx. 10 days, 0 to 100 scale (0 no effect, 100 complete control)

Here's what some known entries look like.
>>> observed("CCCNC(=O)c1cc(CC)n(Cc2nc(C(F)(F)F)no2)n1")
80
>>> observed("CCc1cc(-c2ccc(C(F)(F)F)cc2)nn1C(=O)c1ccnc(C(F)(F)F)c1")
0

Shift focus to the following entry.
Value of Morningglory plant response rating reported for the compound O=C(NC1CC1)c1cc(Br)n(Cc2cccc(C(F)(F)F)c2)n1 is 0

----------
# Barnyardgrass plant response rating per record follows
test system: barnyardgrass; assay: Test A postemergence; format: in vivo, Echinochloa crus-galli; details: Postemergence, 500 g ai/ha; 0 to 100 scale (0 no effect, 100 complete control)

>>> observed("CCNC(=O)c1cc(CCCl)n(Cc2ccnc(C(F)(F)F)c2)n1")
90
>>> observed("Cc1cc(C(=O)NC(C)C)nn1Cc1ccnc(C(F)(F)F)c1")
100

Value of Barnyardgrass plant response rating reported for the compound CCCNC(=O)c1cc(CCC)n(Cc2cc(C(F)(F)F)nn2C)n1 is 100

Value of Barnyardgrass plant response rating reported for the compound CCc1cc(C(=O)NC(C)C)nn1Cc1ccnc(C(F)(F)F)c1 is 90

----------
# Corn plant response rating per record follows
system: corn; assay: Test A preemergence; assay type: in vivo, Zea mays; conditions: preemergence, 125 g ai/ha; visual injury, 0 to 100 scale, approx. 10 days
Text: […]
Write no unit; give the number alone.

Here's what some known entries look like.
>>> observed("CCc1cc(C(=O)NOC)nn1Cc1ccnc(C(F)(F)F)c1 [Compound 99]")
50
>>> observed("CCCc1cc(C(=O)NCC)nn1Cc1ccnc(C(F)(F)F)c1 [Compound 95]")
50
>>> observed("CCCc1cc(C(=O)NCC(F)(F)F)nn1Cc1ccnc(C(F)(F)F)c1 [Compound 105]")
60

Shift focus to the following entry.
Value of Corn plant response rating reported for the compound CCc1cc(-c2ccc(Br)cc2)nn1Cc1ccnc(C(F)(F)F)c1 [Compound 112] is 0
